experiment: NCI Yeast Anticancer Drug Screen. Data for the wt1 strain (AID 149);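 further: 0% = growth of vehicle-treated wt1 cultures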; details: S. cerevisiae wt1 strain (SPY 50644) growth inhibition; at 3.7 µM; stronger effect = higher value
This is part of a sample that, as a whole, favours compounds with a hit. Of some 79,000 tested, about 15% had one in any assay. The source made the active and inactive calls. No stated cut-off is given here; in the data, active means growth inhibition above about 70%; inactive means the rest.
OBSERVED_PROPERTY: growth inhibition

Consider the reported growth inhibition for these compounds:
COMPOUND | RESULT
O=C(NNC(=O)OCC(Cl)(Cl)Cl)OCC(Cl)(Cl)Cl | -2% (inactive)
CC[C@@]1(O)C[C@H](OC2CC(N(C)C)C(O)C(C)O2)c2c(O)c3c(c(O)c2[C@H]1OC1CC(N(C)C)C(O)C(C)O1)C(=O)c1cccc(O)c1C3=O (some centres undefined) | 4% (inactive)
O=[N+]([O-])c1ccc(N2CCC(CCCC3CCN(c4ccc([N+](=O)[O-])cc4[N+](=O)[O-])CC3)CC2)c([N+](=O)[O-])c1 | -1% (inactive)
CC(=O)O/C(=C1\C[C@H]2[C@@H]3CC=C4C[C@@H](OC(C)=O)CC[C@]4(C)[C@H]3CC[C@]2(C)C1=O)C(F)(F)F | 1% (inactive)

## Input Request the reported growth inhibition associated with CN(C)CCSC1=Nc2ccc(Cl)cc2C(c2ccccc2Cl)=NC1
## Output -1% (inactive)

## Input Request the reported growth inhibition associated with COc1cc2ccccc2c2cc([N+](=O)[O-])oc12
## Output 6% (inactive)

## Input Request the reported growth inhibition associated with O=C(/C=C(\c1ccccc1)N1CC1)c1ccccc1
## Output -4% (inactive)

## Input Request the reported growth inhibition associated with CSc1ccccc1[As](C)C
## Output 15% (inactive)

## Input Request the reported growth inhibition associated with CCOP(=O)(CC(C)P(=O)(OCC)OCC)OCC.C[CH2][Sn]([Cl])([Cl])[CH2]C (centres undefined)
## Output 3% (inactive)

---

assay: NCI Yeast Anticancer Drug Screen. Data for the mec2-1 strain (AID 157); conditions: S. cerevisiae mec2-1 strain, at 50.0 µM, stronger effect = higher value
This is part of a sample that, as a whole, favours compounds with a hit. Of some 79,000 tested, about 15% had one in any assay.
OBSERVED_PROPERTY: growth inhibition (%)
The response must be a number in % with no trailing unit.

Consider the reported growth inhibition for these compounds:
COMPOUND | ENDPOINT_UNIT | growth inhibition
Cc1c2ccccc2cc2ccccc12 | % | 98.6
CC(=O)[CH-]C(=O)c1ccccc1.CC(=O)[CH-]C(=O)c1ccccc1.C[C@]12CCC(=O)C=C1CC[C@@H]1C2CC[C@@]2(C)C1CC[C@]2(C)[O-].C[C@]12CCC(=O)C=C1CC[C@@H]1C2CC[C@@]2(C)C1CC[C@]2(C)[O-].Cl.[Ti+4] (stereo partly specified) | % | 85
COC1/C=C\C=C(/C)C(=O)NC2=CC(=O)C(NCCCl)=C(CC(C)CC(OC)C(O)C(C)/C=C(/C)C1OC(N)=O)C2=O (stereo unspecified) | % | 92.3
COC12[C@@H]3N[C@@H]3CN1C1=C(C(=O)C(NCCSSCCNC3=C(C)C(=O)C4=C(C3=O)C(COC(N)=O)[C@]3(OC)C5N[C@@H]5CN43)=C(C)C1=O)[C@@H]2COC(N)=O (stereo partly specified) | % | 49
CCN(CCCl)c1ccc(/C=C/C2=[N+](C)c3ccccc3C2(C)C)c(C)c1 | % | 98.2

## Input Request the reported growth inhibition associated with CCC[CH2][Sn]1([CH2]CCC)[O]CC(c2ccccn2)C[O]1
## Output 90.7

## Input Request the reported growth inhibition associated with CC1(C)OC2OC3C(CN(CCCl)Cc4ccccc4)OC(c4ccccc4)OC3C2O1 (stereo unspecified)
## Output 8.75

## Input Request the reported growth inhibition associated with CC(C)COP(=O)(OCC(C)C)C(=O)Nc1ccc(Cl)cc1
## Output 15.2

## Input Request the reported growth inhibition associated with COC(=O)C1=C(C(=O)OC)[C]([Hg][CH3])(C(C)=O)N=N1 (stereo unspecified)
## Output 99.5

---

test: NCI Yeast Anticancer Drug Screen. Data for the mlh1 rad18 strain (AID 175); settings: S. cerevisiae mlh1 rad18 strain growth inhibition; at 5.0 µM (retest, dose inferred, filed as 0.5)
This is part of a sample that, as a whole, favours compounds with a hit. Of some 79,000 tested, about 15% had one in any assay. Activity calls are given as the source filed them. No stated cut-off is given here; in the data, active means growth inhibition above about 70%; inactive means the rest.
Log the outcome using a class from yes (1) (active), no (0) (inactive)

Worked set:
MOLECULE | ASSIGNED_CLASS
ClCCN(CCCl)CCN1c2ccccc2Sc2ccc3ccccc3c21 | no (0)
COC1=C(C)C(=O)c2c(c(COC(N)=O)c3n2CC2C3N2C)C1=O (stereo not given) | no (0)
CCN(CC)CC.CCOc1ccc(NC(=O)N=C=[N-])cc1.[CH-]1CCCCC1.[CH-]1CCCCC1.[CH-]1CCCCC1.[Cl-].[Sn+4] | yes (1)
c1ccncc1 | no (0)
C[N+](C)(C)CC1CCCC(C[N+](C)(C)C)C1=O (stereo not given) | no (0)

## Input What is the recorded call for this molecule in the test? C=Cc1ccccc1 (tested in a mixture with another compound)
## Output no (0)

## Input What is the recorded call for this molecule in the test? O=[N+]([O-])c1c(Cl)sc(Cl)c1[N+](=O)[O-]
## Output yes (1)

## Input What is the recorded call for this molecule in the test? O=C1c2ccccc2-c2c3c(cc4ccnc1c24)OCO3
## Output yes (1)

## Input What is the recorded call for this molecule in the test? COc1cccc2c1C(=O)c1c(O)c3c(c(O)c1C2=O)C[C@@](O)(C(C)=O)C[C@@H]3OC1CC(N)C(OC2CC(O)C(O)C(C)O2)C(C)O1 (stereo not given in full)
## Output no (0)

## Input What is the recorded call for this molecule in the test? CC12CCC(C)(c3cc(O)c(O)cc31)c1cc(O)c(O)cc12
## Output no (0)

---

experiment: NCI Yeast Anticancer Drug Screen. Data for the mlh1 strain (AID 171);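 further: 0% = growth of vehicle-treated control cultures of the same strain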; conditions: S. cerevisiae mlh1 strain growth inhibition; at 100.0 µM; stronger effect = higher value
The panel holds about 79,000 compounds, 15% with a hit somewhere; the sample as a whole holds those more often.
If the reported growth inhibition equals or exceeds 40%, assign T. If not, assign F.

Worked set:
COMPOUND | ASSIGNED_CLASS
O=c1oc2ccccc2c(O)c1C(c1ccc2ccccc2c1)c1c(O)c2ccccc2oc1=O | T
COC(COC(=O)N1CCN(C=O)CC1)C1=C(N2CC2)C(=O)C(C)=C(N2CC2)C1=O (centres undefined) | F
[O-][n+]1c2cccc(O)c2[n+]([O-])c2cccc(O)c21 | T
O=C1C=C(CN(CCCl)CCCl)C(=O)C=C1CN(CCCl)CCCl | F
CC(=O)O/C(=C1\C[C@H]2[C@@H]3CC=C4C[C@@H](OC(C)=O)CC[C@]4(C)[C@H]3CC[C@]2(C)C1=O)C(F)(F)F | F
CC1=C2C(=C[C@@](C)(CO)[C@@H]2O)C(=O)[C@](C)(O)C12CC2 | F
O=[N+]([O-])c1ccc(C=Cc2ccccc2)cc1.[C-]#[O+].[C-]#[O+].[C-]#[O+].[Cr] | T
CC1CC(C)CC(C)C(O)/C(C#N)=C/C=C/CC(C2CCCC2C(=O)O)OC(=O)CC(O)C(C)C1 (centres undefined) | T

Then this compound:
## Input Could you please find out whether COc1cc2ccccc2c2cc([N+](=O)[O-])oc12 has growth inhibition that meets 40% or exceeds it?
## Output T

---

test: NCI Yeast Anticancer Drug Screen. Data for the mlh1 rad18 strain (AID 175); conditions: S. cerevisiae mlh1 rad18 strain growth inhibition; at 50.0 µM (retest, dose inferred, filed as 5.0)
The panel holds about 79,000 compounds, 15% with a hit somewhere; the sample as a whole holds those more often. Active and inactive are the calls of the source. Rule as the data show it: active = growth inhibition above about 70%; inactive = the rest.
Log the outcome using a class from true (1) (active), false (0) (inactive)

Worked set:
MOLECULE | ASSIGNED_CLASS
CCCCN(CCCC)CCc1ccc(OC(=O)c2ccc(N)cc2)cc1 | true (1)
CC(=O)OC1C(O)C(C)OC(OC2C(OC(=O)C3CCC4C(C3)OC3(CC(OC(=O)/C=C/c5ccccc5)C(C)CO3)C43CO3)OC(C)C(O)C2OC(C)=O)C1O (configuration not stated) | true (1)

Then this molecule:
## Input What is the recorded call for this molecule in the test? Cc1ccc(N=P(c2ccccc2)(c2ccccc2)c2ccccc2)cc1.[I][Hg][I]
## Output true (1)

---

Test: NCI Yeast Anticancer Drug Screen. Data for the bub3 strain (AID 167)
Settings: S. cerevisiae bub3 mutant strain, at 50.0 µM
Description: Growth inhibition of yeast strains with defined genetic alterations is measured as a screen for potential anti-cancer activity. Selected strains with alterations in DNA damage repair or cell cycle control were exposed to compounds and growth inhibition was measured relative to vehicle treated controls. The strain used in this assay is bub3
The panel holds about 79,000 compounds, 15% with a hit somewhere; the sample as a whole holds those more often. The source made the active and inactive calls. Rule as the data show it: active = growth inhibition above about 70%; inactive = the rest.
Log the outcome using a class from yes (active), no (inactive)

Worked set:
COMPOUND | ASSIGNED_CLASS
CC(NCCN(C)C)C1CC2CCCCN2C1 (stereo not given) | no
C1CC[N-]CC1.C1CC[N-]CC1.N#CO.[Ag] | yes
CCOP(=O)(CP(=O)(OCC)OCC)OCC.[Cl][Sn]([Cl])([c]1ccccc1)[c]1ccccc1 | yes
COc1cc2c(cc1OC)C13CCN4CC5=CCOC6CC(=O)N2C1C6C5CC43 (stereo not given) (tested in a mixture with another compound) | no

## Input What is the recorded call for this compound in the test? Cc1cc(C)[n+](CCOc2ccc(/C(=C(/Cl)c3ccccc3)c3ccccc3)cc2)c(C)c1
## Output yes

## Input What is the recorded call for this compound in the test? COc1ccc(Br)cc1/C=C/[N+](=O)[O-]
## Output yes

## Input What is the recorded call for this compound in the test? CC1=C(CO)C(=O)OC(C(C)C2CCC3C4CC5OC56C(O)C(N5CC5)=CC(=O)C6(C)C4CCC23C)C1 (stereo not given)
## Output yes

## Input What is the recorded call for this compound in the test? CCOc1cc(/C=C/[N+](=O)[O-])ccc1O
## Output no

## Input What is the recorded call for this compound in the test? Clc1c(Cl)c(Cl)c([S][Pb]([c]2ccccc2)([c]2ccccc2)[c]2ccccc2)c(Cl)c1Cl
## Output yes

## Input What is the recorded call for this compound in the test? C[C@]12CCc3nonc3C1CC[C@@H]1C2CC[C@]2(C)C(=O)CCC12 (stereo not given in full)
## Output no
